meta.source: PubChem BioAssay AID720532

assay.remarks: qHTS for Inhibitors of binding or entry into cells for Marburg Virus; also: % is scaled to controls: 0 for no effect and ±100 for the full control effect
stated.conditions: Marburg virus pseudotype entry/binding inhibition, cell-based; series mostly up to 49.2 µM
Out of some 18,000 compounds screened, about 1,200 (6.7%) were called active. Not shown: some 16% with an inconclusive outcome. Shown is part of a subset that was picked to be rich in actives.
measured.endpoint: activity change, negative = inhibition

Recorded results for 10 compounds are shown here.
Data point: C=CCOC(=O)NC(c1ccc(F)c(F)c1)C(C(=O)COC)C(=O)OC (centres undefined) ; activity change, negative = inhibition = inactive

Kindly note the recorded activity change, negative = inhibition for C#C[C@]1(O)CC[C@H]2[C@@H]3CCC4=C/C(=N/O)CC[C@@H]4[C@H]3CC[C@@]21CC , which is inactive

activity change, negative = inhibition reported for this compound O=c1cc(-c2ccc(O)cc2)oc2c(-c3cc(-c4cc(=O)c5c(O)cc(O)cc5o4)ccc3O)c(O)ccc12 : inactive

Data point: CCOC(=O)C1=C(C(=O)OCC)C(C(=O)OCC)N(S(=O)(=O)C(F)(F)F)c2ccccc21 (centres undefined) ; activity change, negative = inhibition = inactive

So, CC(C)CNc1cccc2c1S(=O)(=O)N[C@H](CC(C)C)CO2 ? Its activity change, negative = inhibition was inactive

According to the records, this compound C[C@H]1CCC[C@@]2(C)CCCC[C@]12O displays activity change, negative = inhibition of inactive

Lab note: COCCN1C(=O)N[C@@H](CCc2ccccc2)[C@H](C(C)=O)[C@H]1C gave activity change, negative = inhibition of -2.21% [at 8.59 µM] (inactive)

Sure, the documented activity change, negative = inhibition for Cc1ccccc1-c1ccc(C(=O)O)s1 is inactive

Kindly note the recorded activity change, negative = inhibition for COc1ccc([C@]23Cc4cc(OC)c(OC)cc4[C@H](O2)c2c(cc(C)oc2=O)O3)cc1 , which is 8.88% [at 8.59 µM] (inactive)

The reported activity change, negative = inhibition of the compound CCN(CCNC(=O)[C@H]1C=C(OC)C(=O)C[C@@H]2c3ccccc3C[C@]12C)C(C)=O was 0.4% [at 8.59 µM] (inactive)

Value sought for every listed compound: activity change, negative = inhibition.
1. CCCCC[C@H](O)/C=C/[C@@H]1[C@@H](CC(=O)CCC(=O)O)[C@@H](O)C[C@H]1O
2. COc1ccc(-c2c(C)cc3oc(=O)cc(-c4ccccc4)c3c2C)cc1F
3. COc1ccc([C@]23Cc4ccccc4[C@H](O2)c2c(c4ccc(OC)cc4oc2=O)O3)cc1
4. Cc1ccc(-c2ccc(C(=O)N3CCc4nnc(CNC(=O)c5ccccc5)n4CC3)cc2)cc1

["inactive", "inactive", "-9.62% [at 8.59 µM] (inactive)", "inactive"]

Report activity change, negative = inhibition for every entry below.
1. NC[C@@H]1O[C@H](O[C@@H]2[C@H](O[C@@H]3O[C@H](CO)[C@@H](COC[C@H]4O[C@@H](CN)[C@@H](O)[C@@H](O)[C@@H]4N)[C@@H]3O)[C@@H](O)[C@@H](N)C[C@H]2N)[C@@H](N)[C@H](O)[C@@H]1O
2. CO/N=C(/C(=O)N[C@@H]1C(=O)N2C(C(=O)O)=C(Cn3nnc(C)n3)CS[C@H]12)c1csc(N)n1
3. O=C1C=C(c2ccccc2)CCC1
4. O=S1(=O)CC(N2CCC(Cc3ccccc3)CC2)CN1Cc1ccccc1 (centres undefined)

1: inactive; 2: inactive; 3: inactive; 4: inactive

For reference, reported activity change, negative = inhibition for O=S1(=O)CC(O)c2cc(Br)ccc2N1Cc1cccc(F)c1 (centres undefined) stands at inactive
